Assay: Antagonist activity at GABAA receptor (unknown origin) by radioligand binding assay
readout.name: IC50 (nM)
Please give a number only; it is taken to be in nM.

Tell me the measured IC50 of CNC(=O)c1ccc(N2C(=S)N(c3ccc(C#N)c(C(F)(F)F)c3)C(=O)C2(C)C)cc1F [ENZALUTAMIDE] , please. 2700

###

Assay: Stability in human liver microsomes assessed as parent compound remaining at 10 uM
Assay type: ADME, Microsome
Conditions: read-out: Stabilty
readout.name: remaining at 10 µM (%)
Please state the figure in %; there is no need to write the unit.

// lookup remaining at 10 µM for CCOC(=O)Nc1cc2c(cc1F)CC1C(=O)N(c3cnc(C#N)c(C(F)(F)F)c3)C(=S)N1C2 (configuration not stated) 87.1

Requested read-out: remaining at 10 µM. Entry: CNC(=O)c1ccc(N2C(=S)N(c3ccc(C#N)c(C(F)(F)F)c3)C(=O)C2(C)C)cc1F [ENZALUTAMIDE] 90.3

###

Molecular target: Androgen receptor (Homo sapiens, UniProt P10275)
Sequence (P10275 whole entry): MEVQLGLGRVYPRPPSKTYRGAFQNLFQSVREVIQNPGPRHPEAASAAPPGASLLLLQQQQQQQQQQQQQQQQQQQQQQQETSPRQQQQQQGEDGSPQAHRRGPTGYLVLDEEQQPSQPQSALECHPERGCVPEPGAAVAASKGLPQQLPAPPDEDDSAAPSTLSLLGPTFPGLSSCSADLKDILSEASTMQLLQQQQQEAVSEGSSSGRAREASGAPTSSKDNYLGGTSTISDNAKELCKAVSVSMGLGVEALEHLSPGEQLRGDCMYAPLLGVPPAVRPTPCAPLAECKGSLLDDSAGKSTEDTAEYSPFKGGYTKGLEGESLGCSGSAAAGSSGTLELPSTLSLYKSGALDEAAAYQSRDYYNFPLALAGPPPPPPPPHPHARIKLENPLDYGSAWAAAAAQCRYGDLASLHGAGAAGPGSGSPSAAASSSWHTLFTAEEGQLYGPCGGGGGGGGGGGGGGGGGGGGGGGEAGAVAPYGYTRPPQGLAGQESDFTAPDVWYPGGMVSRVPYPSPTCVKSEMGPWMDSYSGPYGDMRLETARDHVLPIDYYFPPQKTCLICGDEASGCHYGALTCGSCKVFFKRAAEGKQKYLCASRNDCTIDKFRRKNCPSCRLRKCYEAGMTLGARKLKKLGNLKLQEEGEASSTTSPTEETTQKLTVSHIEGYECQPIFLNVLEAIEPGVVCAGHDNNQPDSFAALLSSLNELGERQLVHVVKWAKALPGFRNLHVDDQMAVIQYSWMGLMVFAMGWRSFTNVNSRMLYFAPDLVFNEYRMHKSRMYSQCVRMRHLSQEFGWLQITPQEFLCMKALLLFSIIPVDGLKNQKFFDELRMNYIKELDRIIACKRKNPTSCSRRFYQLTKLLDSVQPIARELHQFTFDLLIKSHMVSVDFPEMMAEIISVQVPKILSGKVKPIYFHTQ
Experiment: Antagonist activity at Androgen receptor (unknown origin) expressed in COS7 cells by dual luciferase reporter gene assay relative to control
readout.name: IC50 (µM)
Write the value in µM as a bare number.

Form field: IC50 recorded for CCOC(=O)Nc1cc2c(cc1F)CC1C(=O)N(c3cnc(C#N)c(C(F)(F)F)c3)C(=S)N1C2 (stereo unspecified) with Androgen receptor (Homo sapiens, UniProt P10275) (enter value) 6.17

###

Test: Half life in human liver microsomes at 10 uM
Type: ADME, Microsome
readout.name: half-life at 10 µM (h)
Could you give me the number in h? Just the number is fine.

Form field: reported half-life at 10 µM of CNC(=O)c1ccc(N2C(=S)N(c3ccc(C#N)c(C(F)(F)F)c3)C(=O)C2(C)C)cc1F [ENZALUTAMIDE] 6.69

Look up half-life at 10 µM for this compound: CCOC(=O)Nc1cc2c(cc1F)CC1C(=O)N(c3cnc(C#N)c(C(F)(F)F)c3)C(=S)N1C2 (configuration not stated) 4.36
